system: NIH-3T3 cells; assay: Post-thaw total cell recovery of cryopreserved cells (trypan blue exclusion); assay type: cell-based; details: incubated with 10 mM for 48 h, frozen −80° C. 72 h in media with 400 mM trehalose; ±SEM
recorded.endpoint: Post-thaw recovery (%) 24-hr

• OC[C@@H](O)[C@@H](O)CO [Erythritol, erythritol, reference compound] = 26.0 ± 0.6%
• OC[C@@H](O)[C@@H](O)[C@H](O)[C@@H](O)CO [Sorbitol, sorbitol, reference compound] = 28.4 ± 2.1%
• OC[C@@H](O)[C@H](O)[C@@H](O)CO [Xylitol, xylitol, reference compound] = 22.1 ± 2.1%
• CCC(=O)OC[C@@H](O)[C@@H](O)[C@H](O)[C@H](O)COC(=O)CC = 73.6 ± 3.2%
• CCC(=O)OC[C@@H](O)[C@@H](O)[C@H](O)[C@@H](O)COC(=O)CC = 65.2 ± 2.2%
• CCC(=O)OC[C@@H](O)[C@@H](O)COC(=O)CC = 42.6 ± 2.6%
• CCC(=O)OC[C@@H](O)[C@H](O)[C@@H](O)COC(=O)CC = 49.7 ± 1.1%
• OC[C@@H](O)[C@@H](O)[C@H](O)[C@H](O)CO [Mannitol, mannitol, reference compound] = 20.8 ± 1.5%

Source of measurements: patent US20240065261A1
